PROTOCOL TEXT: COS7 lysate on small-molecule microarray, probe aHis, 635 nm (AID 1123);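 note: z-score combines 667nm fluorescence intensity with signal-to-noise per printed compound spot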
CONDITIONS: COS7 cell lysate, fluorescence, higher = more signal
Grouping rule (composite z-score): band A (below 0.7), band B (0.7 to below 2), band C (2 or more)

Enquiry: Classify this molecule: C=C[C@@H](COC(=O)OC(C)(C)C)N(Cc1ccc(OC)cc1)S(=O)(=O)c1ccc(Br)cc1
Return: band A

Enquiry: Also check COc1ccc([Si](C)(C)[C@@H]2[C@@H](CC(=O)N3CCC[C@H]3CO)O[C@]3(C(=O)N(c4ccccc4)c4ccccc43)[C@H]2C)cc1
Return: band B

Enquiry: Also check CC(C)C(O)C1C=CC2C(=O)NC(=O)C2N1Nc1ccc(Cl)cc1Cl (configuration not stated)
Return: band B

Enquiry: Also check C=CCOC(=O)[C@H]1[C@@H]2C(=O)O[C@@H](c3ccccc3)[C@@H](c3ccccc3)N2[C@@H](c2ccc(OCCOC(=O)[C@@H]3C[C@@H]4C(=O)N[C@@H](CCCCNC(C)=O)C(=O)N4[C@@H]3c3ccc(O)cc3)cc2)[C@]12C(=O)Nc1ccccc12
Return: band B

Enquiry: Also check COc1cc2c(cc1OC)CN(C(=O)[C@H]1[C@@H]3C(=O)O[C@@H](c4ccccc4)[C@@H](c4ccccc4)N3[C@@H](c3ccc(O)cc3)[C@]13C(=O)Nc1ccc(C#CCCO)cc13)CC2
Return: band B

Enquiry: Also check Cc1nc2cc(Br)ccc2c(=O)o1
Return: band A

Enquiry: Also check O=C(OCc1ccccc1)C1=CCC2c3[nH]c4ccccc4c3C(=O)C1N2S(=O)(=O)c1ccccc1[N+](=O)[O-] (configuration not stated)
Return: band C

Enquiry: Also check O=C1C[C@@](C(=O)NC2CC2)(c2ccc([N+](=O)[O-])cc2)[C@@H](c2ccc(CO)cc2I)N1C1CCCCC1
Return: band B

Enquiry: Also check O=C(NCCO)C1=C[C@H](Oc2ccccc2I)[C@@H](O)[C@H](N(Cc2ccco2)C(=O)Cc2ccccc2)C1
Return: band A

Enquiry: Also check [N-]=[N+]=NCc1ccccc1[C@@H]1OC(c2ccc(OCCCO)cc2)=N[C@]1(Cc1ccccc1)C(=O)NCC(O)CO (some centres not stated)
Return: band C
